assay: Determination of mammalian cytotoxicity (MTS); format: cell-based; settings: human; Table 4; HeLa cells, 3 days, dilutions from 100 μM to 0.2 μM; read-out: Avg. CC50
Labelling field: enter TRUE if recorded CC50 at 3 days is less than 30 µM. Enter FALSE if it equals or exceeds that cut-off.

> print(dat)
                                    molecule  category.label
 1  CC(Oc1ccc(Cl)cc1Cl)C(=O)NCc1ccc(Cl)cc1 (stereo not drawn)           FALSE
 2  CC(Oc1ccc(Cl)cc1Cl)C(=O)NC1CCc2cc(F)ccc21 (stereo not drawn)           FALSE
 3  CC(Oc1ccc(Cl)cc1Cl)C(=O)NCc1cc2ccccc2[nH]1 (stereo not drawn)            TRUE
 4  CC(Oc1ccc(Cl)cc1Cl)C(=O)NCc1ccccc1 (stereo not drawn)           FALSE
 5  CCC(NC(=O)C(C)Oc1ccc(Cl)cc1Cl)c1ccc(F)cc1 (stereo not drawn)            TRUE
 6  CC(Oc1ccc(Cl)cc1Cl)C(=O)NCc1ccc(F)cn1 (stereo not drawn)           FALSE
 7  CC(Oc1ccc(Cl)cc1Cl)C(=O)NC1COc2cc(F)ccc21 (stereo not drawn)           FALSE
 8  CC(Oc1ncc(Cl)cc1Cl)C(=O)NCc1ccc2c(c1)OCO2 (stereo not drawn)           FALSE
 9  CC(Oc1ccc(Cl)cc1Cl)C(=O)NC(C)(C)c1ccc2c(c1)OCO2 (stereo not drawn)           FALSE
10  CC(Oc1ccc(Cl)cc1Cl)C(=O)NCc1cccc(F)c1 (stereo not drawn)           FALSE
11  CC(Oc1ccc(Cl)cc1Cl)C(=O)NC(C)c1ccc(F)cc1 (stereo not drawn)           FALSE
12  CC(Oc1ccc(Cl)cc1Cl)C(=O)NCc1ccc2c(ccn2C)c1 (stereo not drawn)           FALSE
13  CC(Oc1ccc(Cl)cc1Cl)C(=O)NCc1ccc2cc[nH]c2c1 (stereo not drawn)            TRUE
14  COc1cccc(OC)c1CNC(=O)C(C)Oc1ccc(Cl)cc1Cl (stereo not drawn)            TRUE
15  CC(Oc1ncc(Cl)cc1Cl)C(=O)NCc1ccc(F)cc1 (stereo not drawn)           FALSE
16  CC(Oc1ccc(Cl)cc1Cl)C(=O)NC(c1ccc(F)cc1)C(C)C (stereo not drawn)            TRUE
17  CC(Oc1ccc(Cl)cc1Cl)C(=O)NCc1ccc2c(c1)CCCO2 (stereo not drawn)           FALSE
18  CC(Oc1ccc(Cl)cc1Cl)C(=O)NCCc1ccc(F)cc1 (stereo not drawn)            TRUE
19  CC(Oc1ccc(Cl)cc1Cl)C(=O)NC(c1ccc(F)cc1)C1CCC1 (stereo not drawn)            TRUE
20  CCCC(NC(=O)C(C)Oc1ccc(Cl)cc1Cl)c1ccc(F)cc1 (stereo not drawn)            TRUE
21  CC(Oc1ccc(Cl)cc1Cl)C(=O)NCc1cccc(Cl)c1 (stereo not drawn)           FALSE
22  CC(Oc1ccc(Cl)cc1Cl)C(=O)NC1(c2ccc(F)cc2)CC1 (stereo not drawn)           FALSE
23  CC(Oc1ccc(Cl)cc1Cl)C(=O)NCc1ccc2occc2c1 (stereo not drawn)           FALSE
24  CC(Oc1ccc(Cl)cc1Cl)C(=O)NC(C)(C)c1ccc(F)cc1 (stereo not drawn)            TRUE
25  CC(Oc1ccc(Cl)cc1Cl)C(=O)NCc1ccccc1F (stereo not drawn)           FALSE
26  CC(Oc1ccc(Cl)cc1Cl)C(=O)NCc1ccc(F)cc1 (stereo not drawn)           FALSE
27  CC(Oc1ccc(Cl)cc1Cl)C(=O)NC(C#N)c1ccc(F)cc1 (stereo not drawn)            TRUE
28  CC(Oc1ccc(Cl)cc1Cl)C(=O)NCc1ccc(N(C)C)cc1 (stereo not drawn)           FALSE
29  Cc1cccc(CNC(=O)C(C)Oc2ccc(Cl)cc2Cl)c1 (stereo not drawn)           FALSE
30  CC(Oc1ccc(Cl)cc1Cl)C(=O)NC(c1ccc(F)cc1)C1CC1 (stereo not drawn)            TRUE
31  C[C@@H](Oc1ccc(Cl)cc1Cl)C(=O)N[C@H](C)c1ccc(F)cc1           FALSE
32  CCCCC(NC(=O)C(C)Oc1ccc(Cl)cc1Cl)c1ccc(F)cc1 (stereo not drawn)            TRUE
33  C[C@H](NC(=O)[C@@H](C)Oc1ccc(Cl)cc1Cl)c1ccc(F)cc1           FALSE
